Assay: qHTS for Inhibitors of human tyrosyl-DNA phosphodiesterase 1 (TDP1): qHTS in cells in absence of CPT; note: nearly all actives have a fitted effect of over 55% in size
Conditions: DT40 Tdp1-/- hTDP1 cells, no CPT, ATP luminescence, 48 h
Among all 420,000 compounds or so, about 64,000 (15%) were called active. Not shown: some 27% with an inconclusive outcome. Calls come from the whole dose curve; as a rule, active = well fitted inhibition curve with a large enough effect; inconclusive = small, poorly fitted or top-dose-only effect; inactive = flat fitted curve, though single readings scatter. A selection follows.
A correct response names exactly one class from 1 = active, 0 = inactive

Previously resolved entries follow.
INSERT INTO assay_data (molecule, label) VALUES
  ('CCOC(=O)CSc1nnc(CNc2ccc(F)cc2)o1', 0),
  ('CC1CCCCC12NC(=O)N(CC(=O)OCC(=O)NCc1ccc(F)cc1)C2=O (centres undefined)', 0),
  ('Cc1cc(C)cc(NC(=O)CCCc2nc(-c3ccccc3Cl)no2)c1', 0),
  ('COc1ccccc1-c1nc(N2CCN(C)CC2)c2ccccc2n1', 0),
  ('CCOC(=O)C1(Cc2ccc(O)cc2)NC(c2ccccc2F)C2C(=O)N(C)C(=O)C21 (centres undefined)', 1),
  ('COc1cccc(OCCn2c(-c3ccc(Br)cc3)nc3ccccc3c2=O)c1', 0),
  ('NS(=O)(=O)c1ccc(CCNC(=O)CN2C(=O)c3ccccc3S2(=O)=O)cc1', 0),
  ('Cc1ccc2c(Cl)c(C(=O)Nc3nn[nH]n3)sc2c1', 0),
  ('CCCC(C)c1nnc(NC(=O)C2CC(=O)N(c3ccc(OCC)cc3)C2)s1 (centres undefined)', 0),
  ('COCC(C)NCc1cc(Br)ccc1OC (centres undefined)', 0);

Write down the call the test reported for this molecule. Item: CCOCCOC(=O)C1=C(C)N(C)C(=O)NC1c1ccccc1F (centres undefined)
0

# iterate: Cc1ccc(-c2csc3nnc(SCC(=O)NCc4ccco4)n23)cc1
0

# iterate: COc1ccc(N2C(=O)NC(NS(=O)(=O)c3ccc(Cl)cc3)(C(F)(F)F)C2=O)cc1 (centres undefined)
0

# iterate: O=C(c1ccc2c(c1)N(Cc1ccc(F)cc1)C(=O)CS2)N1CCOCC1
0

# iterate: COCCCNC(=S)NNC(=O)C(O)(c1ccccc1)c1ccccc1
0

# iterate: COc1ccc(C2(Nc3cccc(F)c3)C(=O)c3ccccc3C2=O)cc1
0

# iterate: CCN(CC)P(=O)(/C(Cl)=C\Nc1c(C)n(C)n(-c2ccccc2)c1=O)N(CC)CC
0

###

Experiment: qHTS for Inhibitors of human tyrosyl-DNA phosphodiesterase 1 (TDP1): qHTS in cells in absence of CPT; note: nearly all actives have a fitted effect of over 55% in size
Settings: DT40 Tdp1-/- hTDP1 cells, no CPT, ATP luminescence, 48 h
Screen size: about 420,000 compounds; about 64,000 (15%) were called active. Roughly 27% stayed inconclusive and do not appear here. Calls follow the shape of the dose curve; as a rule, active = well fitted inhibition curve with a large enough effect; inconclusive = small, poorly fitted or top-dose-only effect; inactive = flat fitted curve, though single readings scatter. The list is a sample of the results.
A correct response names exactly one class from yes (1) = active, no (0) = inactive

INSERT INTO assay_data (smiles_record, label) VALUES
  ('COc1ccc(N2CCN(C(=O)Cn3cnc4sc(C)c(S(=O)(=O)N5CCOCC5)c4c3=O)CC2)cc1', 'yes (1)'),
  ('Cc1cc(Br)ccc1NC(=O)Cn1cnc2sc(C)c(S(=O)(=O)N3CCN(C)CC3)c2c1=O', 'no (0)'),
  ('O=c1ccc2c(-c3ccccc3S(=O)(=O)O)c3ccc(O)c(O)c3oc-2c1O', 'yes (1)'),
  ('CCN(CC)CCNC(=O)Cn1cnc2sc(C)c(S(=O)(=O)N3CCOCC3)c2c1=O', 'no (0)');

API: the following record is the query input.
Write down the call the test reported for this compound. Item: O=C1C=C(c2ccccc2)CCC1
no (0)
